measurement-target: FAK (Homo sapiens, UniProt Q05397)
Sequence (Q05397 whole entry): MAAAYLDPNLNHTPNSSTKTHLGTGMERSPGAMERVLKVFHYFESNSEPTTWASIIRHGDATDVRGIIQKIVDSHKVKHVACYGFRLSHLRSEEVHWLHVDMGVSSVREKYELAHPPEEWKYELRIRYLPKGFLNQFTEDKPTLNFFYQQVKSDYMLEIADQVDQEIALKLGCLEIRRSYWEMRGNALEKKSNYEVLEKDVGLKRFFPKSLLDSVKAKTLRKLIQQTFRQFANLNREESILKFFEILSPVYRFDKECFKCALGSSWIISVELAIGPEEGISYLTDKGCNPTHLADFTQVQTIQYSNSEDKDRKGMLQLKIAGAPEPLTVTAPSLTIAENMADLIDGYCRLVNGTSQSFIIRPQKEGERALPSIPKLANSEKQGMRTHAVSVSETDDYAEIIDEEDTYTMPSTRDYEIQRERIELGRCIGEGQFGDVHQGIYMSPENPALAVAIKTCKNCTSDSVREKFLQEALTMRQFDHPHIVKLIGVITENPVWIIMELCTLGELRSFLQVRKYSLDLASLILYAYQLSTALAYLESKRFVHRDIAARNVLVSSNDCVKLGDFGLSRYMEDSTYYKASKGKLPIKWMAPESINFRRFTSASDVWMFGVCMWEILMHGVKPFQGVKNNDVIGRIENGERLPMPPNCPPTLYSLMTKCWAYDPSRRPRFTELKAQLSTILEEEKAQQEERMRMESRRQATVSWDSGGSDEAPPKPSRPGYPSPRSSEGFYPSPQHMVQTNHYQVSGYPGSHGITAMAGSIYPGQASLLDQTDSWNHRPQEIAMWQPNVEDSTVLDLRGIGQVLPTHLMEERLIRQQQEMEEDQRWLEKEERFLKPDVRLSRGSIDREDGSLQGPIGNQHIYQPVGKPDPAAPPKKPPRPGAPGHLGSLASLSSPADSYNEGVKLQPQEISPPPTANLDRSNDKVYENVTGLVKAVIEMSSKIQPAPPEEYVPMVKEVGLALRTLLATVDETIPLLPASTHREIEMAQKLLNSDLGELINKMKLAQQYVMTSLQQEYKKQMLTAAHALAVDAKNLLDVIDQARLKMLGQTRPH
procedure-summary: Cell-based capture ELISA for inhibition of FAK autophosphorylation [pY397] in MiaPaCa2 cells
test-context: MIA-PaCa2 cells, + 50% human plasma; read-out: Mean FAK Cell Mechanistic IC50 + 50% hP MIA-PaCa2
pIC50: −log10 of the molar value.
Exercise: for every item that follows, state its recorded pIC50.

{"columns": ["compound", "pIC50"],
 "data": [
  ["CC(C)P(=O)(Cc1ccc(Nc2ncc(C(F)(F)F)c(NCc3cccnc3N(C)S(C)(=O)=O)n2)cc1)C(C)C", "> 6.00"],
  ["CCOP(C)(=O)Cc1ccc(Nc2ncc(C(F)(F)F)c(Nc3ccc(C4CCC(O)CC4)c4c3C(=O)N(C)C4)n2)cc1 (stereo not shown)", "> 6.00"],
  ["CCOP(=O)(OCC)C(C)(C)c1ccc(Nc2ncc(C(F)(F)F)c(Nc3ccccc3C(=O)NC)n2)cc1", "> 6.00"],
  ["CCC(C)OP(=O)(Cc1ccc(Nc2ncc(C(F)(F)F)c(NCc3cccnc3N(C)S(C)(=O)=O)n2)cc1)OC(C)CC (stereo not shown)", "5.00 to 6.00"],
  ["C=C(C)c1ccc(Nc2nc(Nc3ccc(CP(C)(=O)OCC)cc3)ncc2C(F)(F)F)c2c1CN(C)C2=O (stereo not shown)", "5.00 to 6.00"],
  ["CCOP(=O)(O)c1ccc(Nc2ncc(C(F)(F)F)c(NCc3cccnc3N(C)S(C)(=O)=O)n2)cc1", "5.00 to 6.00"]
]}

Now for another entry.
// query Recorded pIC50 for CCP(=O)(CC)Cc1cccc(Nc2ncc(C(F)(F)F)c(NCc3cccnc3N(C)S(C)(=O)=O)n2)c1 , please?
// result > 6.00

* * *

Exercise: for every item that follows, state its recorded pIC50.
measurement-target: FAK (Homo sapiens, UniProt Q05397)
procedure-summary: Cell-based capture ELISA for inhibition of FAK autophosphorylation [pY397] in MiaPaCa2 cells
test-context: MIA-PaCa2 cells, + 50% mouse plasma (Table 2); read-out: Mean FAK Cell Mechanistic IC50 + 50% mP MIA-PaCa2
pIC50: −log10 of the molar value.

// worked examples, pIC50 included
{"columns": ["compound", "pIC50"],
 "data": [
  ["CCP(=O)(CC)Cc1ccc(Nc2ncc(C(F)(F)F)c(Nc3ccccc3C(=O)NC)n2)cc1", "> 6.00"],
  ["CCOP(=O)(Cc1cccc(Nc2ncc(C(F)(F)F)c(NCc3cccnc3N(C)S(C)(=O)=O)n2)c1)c1ccccc1 (stereo not drawn)", "< 5.00"],
  ["CC(C)OP(=O)(Cc1cccc(Nc2ncc(C(F)(F)F)c(NCc3cccnc3N(C)S(C)(=O)=O)n2)c1)OC(C)C", "5.00 to 6.00"],
  ["CCOP(=O)(Cc1ccc(Nc2ncc(C(F)(F)F)c(Nc3ccc(-c4cnn(CC(C)(C)O)c4)c4c3C(=O)N(C)C4)n2)c(OC)c1)OCC", "> 6.00"],
  ["CC(C)P(=O)(Cc1ccc(Nc2ncc(C(F)(F)F)c(NCc3cccnc3N(C)S(C)(=O)=O)n2)cc1)C(C)C", "> 6.00"]
]}

// query Hi! What's the reported pIC50 for CN(c1ncccc1CNc1nc(Nc2ccc(CP3(=O)OCCCO3)cc2)ncc1C(F)(F)F)S(C)(=O)=O on FAK (Homo sapiens, UniProt Q05397)?
// result > 6.00
